method-notes: reversal of MRP1-mediated doxorubicin resistance, pilot screen, H69AR cells, doxorubicin co-treatment (AID 601)
applied-conditions: H69AR cells, CellTiter-Glo, 72 h; compound alone cytotoxicity; at 10 µM
# note: exactly 90% is not below, so it is Not met; use Met for viability strictly under it

Task: Confirm or reject: viability of CCN(C(=O)c1cn(C)c(=O)c2cc(OC)c(OC)cc12)c1ccccc1C lies strictly below 90%
Result: Not met

Task: Another compound: CCCCOCCCNC(=O)c1cccs1
Result: Not met

Task: // next record O=c1sc(Nc2ccccc2)nc2ccsc12
Result: Met

Task: Consider next the compound O=c1oc2ccccc2c(O)c1C=NCc1ccccn1 in the same way.
Result: Met

Task: Input O=C(CCCN1CC=C(n2c(=O)[nH]c3ccccc32)CC1)c1ccc(F)cc1
Result: Met
